target: ComR Y91A (ComR-StreptagII mutant) (Streptococcus thermophilus LMD-9); experiment: ITC; peptide 500 μM in the syringe, ComR 50 μM in the cell; 20°C; 20 mM Tris-HCl pH 8.0, 150 mM NaCl, 1 mM EDTA; one-binding-site model; apparent KD (peptide binding and dimerization not told apart)
VALUE_TYPE: pKd
pKd is defined as minus the log10 of a concentration measured in mol/L.

Ask: I'd like to know its pKd. The binder in question is LPYFAGCL [XIP octapeptide (ComS 17-24, LPYFAGCL) from Streptococcus thermophilus LMD-9]
Reply: 6.85

All figures here come from paper PMC5131891.
